Provenance of the data: patent US10208037B2

- target or system: TLR7 (Homo sapiens, UniProt Q9NYK1)
- Construct: expressed in transfected cells; host or cells: HEK293 (HEK-Blue-7 cells)
- Sequence (Q9NYK1 27-1049): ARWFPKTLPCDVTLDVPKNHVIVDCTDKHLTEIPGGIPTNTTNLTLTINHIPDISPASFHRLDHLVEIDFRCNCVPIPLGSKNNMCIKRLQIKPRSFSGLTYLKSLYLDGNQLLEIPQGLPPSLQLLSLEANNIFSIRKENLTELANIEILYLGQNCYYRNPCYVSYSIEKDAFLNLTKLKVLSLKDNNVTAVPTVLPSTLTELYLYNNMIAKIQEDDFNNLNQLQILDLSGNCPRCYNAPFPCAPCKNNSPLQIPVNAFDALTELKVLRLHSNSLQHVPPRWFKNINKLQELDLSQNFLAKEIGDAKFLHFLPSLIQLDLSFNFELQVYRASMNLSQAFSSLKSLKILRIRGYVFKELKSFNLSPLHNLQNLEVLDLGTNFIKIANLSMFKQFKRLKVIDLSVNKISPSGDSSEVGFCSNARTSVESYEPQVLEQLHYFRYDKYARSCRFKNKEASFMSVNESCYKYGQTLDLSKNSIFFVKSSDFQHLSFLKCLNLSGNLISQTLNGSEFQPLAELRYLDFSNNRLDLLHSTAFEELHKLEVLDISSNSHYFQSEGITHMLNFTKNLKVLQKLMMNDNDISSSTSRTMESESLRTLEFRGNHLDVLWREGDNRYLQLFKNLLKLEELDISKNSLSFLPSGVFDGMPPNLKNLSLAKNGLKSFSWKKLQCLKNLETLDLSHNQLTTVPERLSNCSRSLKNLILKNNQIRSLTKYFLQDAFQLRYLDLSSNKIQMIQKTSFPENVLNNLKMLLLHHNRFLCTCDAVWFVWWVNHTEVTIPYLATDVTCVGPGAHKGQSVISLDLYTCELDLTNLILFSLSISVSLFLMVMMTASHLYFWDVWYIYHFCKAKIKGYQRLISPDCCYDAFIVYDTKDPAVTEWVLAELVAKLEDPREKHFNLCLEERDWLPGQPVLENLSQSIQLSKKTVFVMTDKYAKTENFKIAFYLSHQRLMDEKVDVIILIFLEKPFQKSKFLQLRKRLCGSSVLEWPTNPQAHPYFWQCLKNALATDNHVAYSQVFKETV
- assay explanation: TLR7 reporter gene assay (NF-κB induction, HEK-Blue-7 cells), agonism
- Format: cell-based
- assay context: Table 1; ND = not detected; read-out: TLR7 Agonism
pEC50: −log10 of the molar value.
observation type: pEC50

>  <compound>
CCCCc1nc2c(N)nc3ccc([N+](=O)[O-])cc3c2n1Cc1ccc(CN)cc1 [Compound 53a]

>  <value reported>
6.25

$$$$
>  <compound>
CCCCc1nc2c(N)nc3ccccc3c2n1Cc1ccc(CNC(=O)CCCCCCC(=O)NCc2ccc(Cn3c(CCCC)nc4c(N)nc5ccccc5c43)cc2)cc1 [Compound 52b]

>  <value reported>
6.62

$$$$
>  <compound>
CCCCc1nc2c(N)nc3ccc(NC(=O)CCCCCCC(=O)Nc4ccc5nc(N)c6nc(CCCC)n(Cc7ccc(CN)cc7)c6c5c4)cc3c2n1Cc1ccc(CN)cc1 [Compound 55b]

>  <value reported>
5.40

$$$$
>  <compound>
CCCCc1nc2c(NCCCCCCCCCCNc3nc4ccccc4c4c3nc(CCCC)n4Cc3ccccc3)nc3ccccc3c2n1Cc1ccccc1 [Compound 51c]

>  <value reported>
5.52

$$$$
>  <compound>
CCCCc1nc2c(N)nc3ccc(NC(=O)CCCCC(=O)Nc4ccc5nc(N)c6nc(CCCC)n(Cc7ccc(CN)cc7)c6c5c4)cc3c2n1Cc1ccc(CN)cc1 [Compound 55a]

>  <value reported>
5.14

$$$$
>  <compound>
CCCCc1nc2c(N)nc3ccccc3c2n1Cc1ccc(CNC(=O)CCCCC(=O)NCc2ccc(Cn3c(CCCC)nc4c(N)nc5ccccc5c43)cc2)cc1 [Compound 52a]

>  <value reported>
6.96

$$$$
>  <compound>
CCCCc1nc2c(NCCCCCCCCNc3nc4ccccc4c4c3nc(CCCC)n4Cc3ccccc3)nc3ccccc3c2n1Cc1ccccc1 [Compound 51b]

>  <value reported>
6.25

$$$$
>  <compound>
CCCCc1nc2c(N)nc3ccc(N)cc3c2n1Cc1ccc(CN)cc1 [Compound 54a]

>  <value reported>
6.35

$$$$
>  <compound>
CCCCc1nc2c(N)nc3ccccc3c2n1Cc1ccc(CNC(=O)CCCCCCCCCCC(=O)NCc2ccc(Cn3c(CCCC)nc4c(N)nc5ccccc5c43)cc2)cc1 [Compound 52c]

>  <value reported>
6.77

$$$$
>  <compound>
CCCCc1nc2c(NCCCCNc3nc4ccccc4c4c3nc(CCCC)n4Cc3ccccc3)nc3ccccc3c2n1Cc1ccccc1 [Compound 51a]

>  <value reported>
5.69

$$$$
>  <compound>
CCCCc1nc2c(N)nc3ccc(NC(=O)CCCCCCCCCCC(=O)Nc4ccc5nc(N)c6nc(CCCC)n(Cc7ccc(CN)cc7)c6c5c4)cc3c2n1Cc1ccc(CN)cc1 [Compound 55c]

>  <value reported>
5.27

$$$$
>  <compound>
CCCCc1nc2c(NCCCCCCCCCCCCNc3nc4ccccc4c4c3nc(CCCC)n4Cc3ccccc3)nc3ccccc3c2n1Cc1ccccc1 [Compound 51d]

>  <value reported>
5.85

$$$$
